System: Escherichia coli TOP10
procedure_summary: shrunken log2 fold change of peptide-encoding DNA abundance (4.5 h post-induction vs induction); higher = less antimicrobial activity (less host growth inhibition)
condition_parameters: time post-induction: 4.5 h; library: site-saturation at positions 5, 18, 19, 20
Please provide measured shrunken log2 fold change for the entries that follow.
When you answer, write just the number.

IN: Write shrunken log2 fold change of RRIRRRPPRLPRPRPRPIFQPRP ; system used: Escherichia coli TOP10
OUT: 0.303

IN: Write shrunken log2 fold change of RRIRIRPPRLPRPRPRPSNIPRP ; system used: Escherichia coli TOP10
OUT: -0.207

IN: Write shrunken log2 fold change of RRIRYRPPRLPRPRPRPAIQPRP ; system used: Escherichia coli TOP10
OUT: -0.316

IN: Write shrunken log2 fold change of RRIRRRPPRLPRPRPRPQMLPRP ; system used: Escherichia coli TOP10
OUT: 0.246

IN: Write shrunken log2 fold change of RRIRFRPPRLPRPRPRPYRVPRP ; system used: Escherichia coli TOP10
OUT: -0.702

IN: Write shrunken log2 fold change of RRIRGRPPRLPRPRPRPRALPRP ; system used: Escherichia coli TOP10
OUT: 0.852

IN: Write shrunken log2 fold change of RRIRMRPPRLPRPRPRPDGKPRP ; system used: Escherichia coli TOP10
OUT: 0.322

IN: Write shrunken log2 fold change of RRIRNRPPRLPRPRPRPIWSPRP ; system used: Escherichia coli TOP10
OUT: 0.0615

IN: Write shrunken log2 fold change of RRIRARPPRLPRPRPRPWRRPRP ; system used: Escherichia coli TOP10
OUT: 0.267

IN: Write shrunken log2 fold change of RRIRSRPPRLPRPRPRPDNCPRP ; system used: Escherichia coli TOP10
OUT: -0.103

IN: Write shrunken log2 fold change of RRIRCRPPRLPRPRPRPGFAPRP ; system used: Escherichia coli TOP10
OUT: 0.354

IN: Write shrunken log2 fold change of RRIRVRPPRLPRPRPRPLIVPRP ; system used: Escherichia coli TOP10
OUT: -0.335

IN: Write shrunken log2 fold change of RRIRCRPPRLPRPRPRPLHKPRP ; system used: Escherichia coli TOP10
OUT: -0.0345

IN: Write shrunken log2 fold change of RRIRLRPPRLPRPRPRPEPSPRP ; system used: Escherichia coli TOP10
OUT: 0.787

---

Test system: Escherichia coli TOP10;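 further: peptides expressed intracellularly from a pBAD plasmid library in pooled LB shake-flask culture, induced with 0.3% L-arabinose, DNA abundance read by NGS, three biological replicates, DESeq2 with apeglm shrinkage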
procedure_summary: shrunken log2 fold change of peptide-encoding DNA abundance (4.5 h post-induction vs induction); higher = less antimicrobial activity (less host growth inhibition)
condition_parameters: time post-induction: 4.5 h; library: site-saturation at positions 5, 18, 19, 20
quantity_kind: shrunken log2 fold change
When you answer, write just the number.

IN: Return shrunken log2 fold change for the following sequence: RRIRRRPPRLPRPRPRPTPKPRP
OUT: 1.24

IN: Return shrunken log2 fold change for the following sequence: RRIRHRPPRLPRPRPRPSMWPRP
OUT: -0.095

IN: Return shrunken log2 fold change for the following sequence: RRIRQRPPRLPRPRPRPNSRPRP
OUT: -0.0312

IN: Return shrunken log2 fold change for the following sequence: RRIRERPPRLPRPRPRPSNTPRP
OUT: -0.942

IN: Return shrunken log2 fold change for the following sequence: RRIRARPPRLPRPRPRPEPLPRP
OUT: 0.284

IN: Return shrunken log2 fold change for the following sequence: RRIRLRPPRLPRPRPRPLLKPRP
OUT: -0.163

IN: Return shrunken log2 fold change for the following sequence: RRIRKRPPRLPRPRPRPFINPRP
OUT: -0.148

IN: Return shrunken log2 fold change for the following sequence: RRIRLRPPRLPRPRPRPPWHPRP
OUT: 0.193

IN: Return shrunken log2 fold change for the following sequence: RRIRRRPPRLPRPRPRPISMPRP
OUT: 0.0655

IN: Return shrunken log2 fold change for the following sequence: RRIRKRPPRLPRPRPRPGGPPRP
OUT: 0.453

IN: Return shrunken log2 fold change for the following sequence: RRIRSRPPRLPRPRPRPRWSPRP
OUT: 0.122

IN: Return shrunken log2 fold change for the following sequence: RRIRYRPPRLPRPRPRPFWNPRP
OUT: -0.178

IN: Return shrunken log2 fold change for the following sequence: RRIRVRPPRLPRPRPRPQMRPRP
OUT: 0.458

IN: Return shrunken log2 fold change for the following sequence: RRIRNRPPRLPRPRPRPIWGPRP
OUT: -0.0075

IN: Return shrunken log2 fold change for the following sequence: RRIRIRPPRLPRPRPRPKETPRP
OUT: -0.0675

IN: Return shrunken log2 fold change for the following sequence: RRIRGRPPRLPRPRPRPWREPRP
OUT: 0.599

IN: Return shrunken log2 fold change for the following sequence: RRIRRRPPRLPRPRPRPMLKPRP
OUT: 0.0333

IN: Return shrunken log2 fold change for the following sequence: RRIRKRPPRLPRPRPRPFCKPRP
OUT: 0.326

IN: Return shrunken log2 fold change for the following sequence: RRIRWRPPRLPRPRPRPRWGPRP
OUT: 0.534

IN: Return shrunken log2 fold change for the following sequence: RRIRKRPPRLPRPRPRPEFVPRP
OUT: 0.587

IN: Return shrunken log2 fold change for the following sequence: RRIRIRPPRLPRPRPRPKSHPRP
OUT: -0.451

IN: Return shrunken log2 fold change for the following sequence: RRIRMRPPRLPRPRPRPAHTPRP
OUT: 0.709

IN: Return shrunken log2 fold change for the following sequence: RRIRNRPPRLPRPRPRPEWLPRP
OUT: 0.226

IN: Return shrunken log2 fold change for the following sequence: RRIRRRPPRLPRPRPRPFIDPRP
OUT: -0.162

IN: Return shrunken log2 fold change for the following sequence: RRIRFRPPRLPRPRPRPFSFPRP
OUT: -0.499

IN: Return shrunken log2 fold change for the following sequence: RRIRPRPPRLPRPRPRPRIAPRP
OUT: 0.451

IN: Return shrunken log2 fold change for the following sequence: RRIRIRPPRLPRPRPRPDLEPRP
OUT: -0.0323

IN: Return shrunken log2 fold change for the following sequence: RRIRKRPPRLPRPRPRPMCWPRP
OUT: 0.0564

IN: Return shrunken log2 fold change for the following sequence: RRIRDRPPRLPRPRPRPVGNPRP
OUT: 0.114

IN: Return shrunken log2 fold change for the following sequence: RRIRRRPPRLPRPRPRPISFPRP
OUT: -0.27

IN: Return shrunken log2 fold change for the following sequence: RRIRWRPPRLPRPRPRPINNPRP
OUT: -0.659

IN: Return shrunken log2 fold change for the following sequence: RRIRCRPPRLPRPRPRPIFCPRP
OUT: -0.339

IN: Return shrunken log2 fold change for the following sequence: RRIRNRPPRLPRPRPRPHAFPRP
OUT: -0.0636

IN: Return shrunken log2 fold change for the following sequence: RRIRDRPPRLPRPRPRPKTDPRP
OUT: -0.314

IN: Return shrunken log2 fold change for the following sequence: RRIRIRPPRLPRPRPRPWSWPRP
OUT: -0.0152

IN: Return shrunken log2 fold change for the following sequence: RRIRNRPPRLPRPRPRPDFEPRP
OUT: -0.0968

IN: Return shrunken log2 fold change for the following sequence: RRIRIRPPRLPRPRPRPVTAPRP
OUT: -0.299

IN: Return shrunken log2 fold change for the following sequence: RRIRQRPPRLPRPRPRPEESPRP
OUT: 0.0313

IN: Return shrunken log2 fold change for the following sequence: RRIRPRPPRLPRPRPRPSTQPRP
OUT: -0.355

IN: Return shrunken log2 fold change for the following sequence: RRIRQRPPRLPRPRPRPICIPRP
OUT: -0.0334

IN: Return shrunken log2 fold change for the following sequence: RRIRNRPPRLPRPRPRPARIPRP
OUT: -0.0767
